Values were extracted from patent US10703764B2.

Known IC50 of a selection of compounds
- target: BRD4 BD1 (Homo sapiens)
- Construct: made in house
- assay_protocol: AlphaScreen binding assay, BRD4 Bromodomain 1
measurement_type: IC50

item_smiles	measurement
CC(=O)N1c2ccc(-c3cncnc3)cc2N(C(=O)c2ccco2)C[C@@H]1C	> 10 µM
CC(=O)N1c2ccc(-c3ccc(C(=O)NCCO)cc3)cc2N(C(=O)c2ccco2)C[C@@H]1C	1 to 10 µM
CC(=O)N1c2ccc(-c3ccc(NS(C)(=O)=O)cc3)cc2N(C(=O)OC2CC(F)(F)C2)C[C@@H]1C	0.1 to 1 µM
CC(=O)N1c2ccc(-c3cnn(CCC#N)c3)cc2N(C(=O)Oc2ccccn2)C[C@@H]1C	0.1 to 1 µM
